- protocol.summary: COV-362 Cancer Cell Toxicity qHTS against the NCATS CANVASS Library (AID 1347352)
- assay.setup: COV-362 viability, CellTiter-Glo luminescence, 72 h; series mostly up to 38.3 µM
Results filed as inconclusive are left out. Active and inactive are the calls of the source. The call rests on the fitted dose curve; in most records, active means well fitted cell-killing curve with a large enough effect; inconclusive means small, poorly fitted or top-dose-only effect; inactive means flat fitted curve, though single readings scatter.
value.type: outcome

Asked: Annotate the compound O=Cc1ccc2n1C[C@]1(C[C@H](O)[C@@H](CO)O1)OC2 with its measured outcome.
Given back: inactive

Asked: Annotate the compound COc1c(O)cc(O)c2c(=O)cc(-c3ccccc3)oc12 with its measured outcome.
Given back: inactive

Asked: Annotate the compound C=C[C@]1(C)CC[C@@H]([C@H](C)C(=O)/C=C/C(C)(C)O)O1 with its measured outcome.
Given back: inactive

---

- measurement.target: Dual specificity protein kinase CLK4 (Homo sapiens) (UniProt Q9HAZ1)
- Sequence (Q9HAZ1 whole entry, looked up): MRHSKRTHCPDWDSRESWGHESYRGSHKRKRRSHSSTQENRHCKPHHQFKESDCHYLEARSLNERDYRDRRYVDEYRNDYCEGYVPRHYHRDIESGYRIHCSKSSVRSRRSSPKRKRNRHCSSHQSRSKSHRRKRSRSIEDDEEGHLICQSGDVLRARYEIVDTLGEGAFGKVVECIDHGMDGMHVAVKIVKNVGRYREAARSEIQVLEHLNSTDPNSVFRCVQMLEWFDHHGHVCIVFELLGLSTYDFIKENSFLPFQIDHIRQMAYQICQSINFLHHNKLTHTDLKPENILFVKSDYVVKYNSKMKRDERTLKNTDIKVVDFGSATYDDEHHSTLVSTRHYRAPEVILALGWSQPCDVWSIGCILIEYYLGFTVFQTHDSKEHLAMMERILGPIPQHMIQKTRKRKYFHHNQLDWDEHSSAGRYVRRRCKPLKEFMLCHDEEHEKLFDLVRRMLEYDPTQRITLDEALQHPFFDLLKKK
- protocol.summary: qHTS Assay for Inhibitors of CDC-like Kinase 4 (Kinase-Glo Assay) (AID 1770); further: nearly all actives have a fitted effect of over 65% in size
- assay.setup: recombinant Clk4, Kinase-Glo ATP depletion luminescence; series mostly up to 66.7 µM
- From the text: NIH Molecular Libraries Probe Production Centers Network [MLPCN] NIH Chemical Genomics Center [NCGC] […] Following the Clk4 reaction, the remaining ATP levels were detected using Promega Kinase-Glo technology wherein the remaining ATP from the kinase reaction is detected using Ultra-Glo luciferase and D-luciferin which generates a bioluminescence signal from the ATP. […]
Records with an inconclusive call do not appear. Calls of active or inactive are those of the source. The call rests on the fitted dose curve; in most records, active means well fitted inhibition curve with a large enough effect; inconclusive means small, poorly fitted or top-dose-only effect; inactive means flat fitted curve, though single readings scatter.
Response enum: active, inactive

Consider the following illustrative entries.
Asked: Check the results log: what was the call for N#CCCn1c(=O)c(-c2ccc(Cl)cc2)nc2cnc(Oc3ccccc3)nc21 ?
Given back: inactive

Asked: Check the results log: what was the call for CS(=O)(=O)Nc1cccc(-c2ccc3ncnc(NC4CCNCC4)c3c2)c1 ?
Given back: active

Asked: Check the results log: what was the call for CNc1nc(-c2ccc3c(c2)OCO3)nc2ccccc12 ?
Given back: active

Asked: Check the results log: what was the call for Cc1noc(C)c1-c1nccc(N2CCOCC2)n1 ?
Given back: active

Asked: Check the results log: what was the call for COc1ncc2ncc(=O)n(C[C@H]3CCCO3)c2n1 ?
Given back: inactive

Asked: Check the results log: what was the call for CN1CCN(c2ncc3ncc(=O)n(C[C@H]4CCCO4)c3n2)CC1 ?
Given back: inactive

Asked: Check the results log: what was the call for COc1ccc(-c2nc3cnc(Oc4ccccc4)nc3n(CCC#N)c2=O)cc1 ?
Given back: inactive

Asked: Check the results log: what was the call for Cc1ccccc1-c1cc(NCc2ccccc2)ncn1 ?
Given back: inactive

# ---- query compound ----
Asked: Check the results log: what was the call for COc1ccc(Oc2ncc3nc(CCc4ccccc4)c(=O)n(C[C@H]4CCCO4)c3n2)cc1 ?
Given back: inactive

---

- measurement.target: Cytochrome P450 3A4 (Homo sapiens) (UniProt P08684)
- Sequence (P08684 whole entry, looked up): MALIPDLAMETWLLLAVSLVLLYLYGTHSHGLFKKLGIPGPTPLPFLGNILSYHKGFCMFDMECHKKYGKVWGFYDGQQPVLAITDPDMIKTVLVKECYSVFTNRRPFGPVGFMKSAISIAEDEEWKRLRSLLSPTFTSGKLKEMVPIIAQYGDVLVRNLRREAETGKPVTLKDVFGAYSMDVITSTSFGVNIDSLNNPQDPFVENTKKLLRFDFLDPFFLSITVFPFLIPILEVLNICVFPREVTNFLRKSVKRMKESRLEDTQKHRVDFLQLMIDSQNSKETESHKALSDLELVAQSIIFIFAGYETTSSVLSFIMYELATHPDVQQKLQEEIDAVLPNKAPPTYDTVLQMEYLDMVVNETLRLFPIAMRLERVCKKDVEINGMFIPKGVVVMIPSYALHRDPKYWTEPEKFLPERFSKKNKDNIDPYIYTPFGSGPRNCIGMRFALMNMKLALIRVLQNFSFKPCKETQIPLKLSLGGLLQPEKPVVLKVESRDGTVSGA
- protocol.summary: qHTS Assay for Inhibitors and Substrates of Cytochrome P450 3A4 (AID 884); further: nearly all actives have a fitted effect of over 50% in size
- assay.setup: recombinant CYP3A4, Luciferin-PPXE luminescence; series mostly up to 57.1 µM
- Method: NIH Molecular Libraries Screening Centers Network [MLSCN] NIH Chemical Genomics Center [NCGC] The P450 gene superfamily is involved in the metabolism and clearance of xenobiotics. […] The luciferin is then measured by luminescence after the addition of a luciferase detection reagent. […] Inhibitors and some substrates limit the production of luciferin, and decrease measured luminescence. […]
Results filed as inconclusive are left out. Activity calls are given as the source filed them. The call rests on the fitted dose curve; in most records, active means well fitted inhibition curve with a large enough effect; inconclusive means small, poorly fitted or top-dose-only effect; inactive means no such curve, though single readings can be large or run the other way.
Response enum: active, inactive

Consider the following illustrative entries.
Asked: Check the results log: what was the call for CN(C)c1ccnc(-c2ccccc2C(F)(F)F)n1 ?
Given back: inactive

Asked: Check the results log: what was the call for CS(=O)(=O)N1CCC2(CCN(C(c3ccccc3)c3ccccc3)CC2)CC1 ?
Given back: inactive

Asked: Check the results log: what was the call for Cc1noc(C)c1-c1cncnc1NCCN1CCOCC1 ?
Given back: active

Asked: Check the results log: what was the call for COc1ccc2[nH]cc(CCNc3cc(-c4ccccc4C(F)(F)F)ncn3)c2c1 ?
Given back: active

Asked: Check the results log: what was the call for O=C(Oc1ccccc1)N1CCC2(CC1)CN(c1ccccc1)C2 ?
Given back: inactive

More entries:
Asked: Check the results log: what was the call for CCCn1c(-c2ccc(F)cc2)nc2c(NCCN3CCCC3)nc(C)nc21 ?
Given back: inactive

Asked: Check the results log: what was the call for COc1ccccc1-c1cncnc1-n1ccnc1 ?
Given back: inactive

Asked: Check the results log: what was the call for CCN(CC)CCn1c(-c2ccccc2)nc2c(N3CCOCC3)nc(C)nc21 ?
Given back: inactive

Asked: Check the results log: what was the call for CCNc1ncc2nc(C)c(=O)n(-c3ccc(OC)cc3)c2n1 ?
Given back: inactive

Asked: Check the results log: what was the call for c1cncc(CNc2ncncc2-c2ccc3c(c2)OCO3)c1 ?
Given back: active

Asked: Check the results log: what was the call for Cc1nc(NCc2ccccc2)c2nc(-c3ccccc3)n(C(C)CN(C)C)c2n1 (stereo unspecified) ?
Given back: active

---

- protocol.summary: J3T Cancer Cell Toxicity qHTS against the NCATS CANVASS Library (AID 1347371)
- assay.setup: J3T dog glioma viability, ATP luminescence, 72 h; series mostly up to 46.1 µM
Results filed as inconclusive are left out. Active and inactive are the calls of the source. Calls come from the whole dose curve; as a rule, active = well fitted cell-killing curve with a large enough effect; inconclusive = small, poorly fitted or top-dose-only effect; inactive = flat fitted curve, though single readings scatter.
Response enum: class 1 (active), class 0 (inactive)

Asked: Check the results log: what was the call for CCC(C)=C1OC(=O)[C@H](C)[C@H](O)[C@H](Cc2cccnc2)NC(=O)C(NC(=O)c2ncccc2O)C(C)OC1=O (stereo partly specified) ?
Given back: class 0

Asked: Check the results log: what was the call for C[C@H](c1cnc(N)[nH]1)c1ccc(O)c2[nH]cc(-c3cnc(-c4c[nH]c5ccccc45)c(=O)[nH]3)c12 ?
Given back: class 0

Asked: Check the results log: what was the call for CCCc1c2c([nH]c(=O)c1C)C(=O)c1[nH]c(=O)c(C)c(CCC)c1C2=O ?
Given back: class 0

Asked: Check the results log: what was the call for C=C[C@](Cl)(CBr)CCC=C(C)C ?
Given back: class 0

Asked: Check the results log: what was the call for COc1c(O)cc2c(c1O)C(=O)c1c(coc1C)C2=O ?
Given back: class 0

Asked: Check the results log: what was the call for CC(=O)O[C@H]1c2ccccc2-c2c3c(cc4c2[C@@H]1N(C(C)=O)CC4)OCO3 ?
Given back: class 0

Asked: Check the results log: what was the call for C/C=C1/CN2C3CC1C1C=CC(=O)N4c5ccccc5[C@@]3(C[C@@H]2C2=C[C@H]3C5CC6N(CC[C@@]67c6ccccc6N(C2=O)[C@@H]37)C/C5=C/C)[C@H]14 (stereo partly specified) ?
Given back: class 1

Asked: Check the results log: what was the call for CC1=C2CC[C@]3(C)[C@H](CC=C4[C@@H]5CC(C)(C)CC[C@@H]5C(=O)[C@H](O)[C@]43C)[C@@]2(C)C=C(O)C1=O ?
Given back: class 0

More entries:
Asked: Check the results log: what was the call for C/C=C/[C@H]1[C@H]2C(=O)c3c(O)c(C)c(O)c(C)c3[C@]1(C(=O)O)C(=O)C=C2C ?
Given back: class 0

Asked: Check the results log: what was the call for CO[C@@H]1[C@H](O)[C@@H](C)O[C@@H](OC[C@@H]2C(C)OC(=O)/C=C/[C@H](C)C(O[C@@H]3O[C@H](C)CC4(OC(=O)O[C@@H]4C)C3O)[C@@H](C)CC(C)C(=O)/C=C/[C@H]3OC23)[C@@H]1OC (stereo partly specified) ?
Given back: class 1

---

- protocol.summary: qHTS for inhibitors of ER calcium dysfunction: SERCaMP assay screened against the NCATS CANVASS Library (AID 1347393); further: nearly all actives have a fitted effect of over 40% in size
- assay.setup: SH-SY5Y GLuc-SERCaMP (Gaussia luciferase released on ER calcium loss) secretion, thapsigargin, luminescence; series mostly up to 76.6 µM
- Source text: Natural products and their derivatives continue to be wellsprings of nascent therapeutic potential. […] To address this issue, the Canvass library of natural products was assembled (https://tripod.nih.gov/canvass), in collaboration with academic and industry researchers, for quantitative high-throughput screening (qHTS) across a diverse set of cell-based and biochemical assays. […]
Records with an inconclusive call do not appear. Calls of active or inactive are those of the source. The call rests on the fitted dose curve; in most records, active means well fitted inhibition curve with a large enough effect; inconclusive means small, poorly fitted or top-dose-only effect; inactive means no such curve, though single readings can be large or run the other way.
Response enum: active, inactive

Consider the following illustrative entries.
Asked: Check the results log: what was the call for COc1cc2c(cc1OC)[C@@H](c1ccc3c(c1)OCO3)C(C)[C@@H](C)C2=O (stereo partly specified) ?
Given back: active

Asked: Check the results log: what was the call for CC(C)C[C@@H]1c2c(O)c(C=O)c(O)c(C=O)c2O[C@]2(C)C=C[C@@H](C(C)C)C[C@H]12 ?
Given back: inactive

Asked: Check the results log: what was the call for O=Cc1ccc2n1C[C@]1(C[C@H](O)[C@@H](CO)O1)OC2 ?
Given back: inactive

More entries:
Asked: Check the results log: what was the call for COc1ccc([C@@H]2c3cc4c(cc3C(=O)[C@H](C)C2C)OCO4)cc1OC (stereo partly specified) ?
Given back: inactive

Asked: Check the results log: what was the call for CC(C)=CCCC(C)(O)[C@H]1CC=C(C)C(O)C1 (stereo partly specified) ?
Given back: inactive

Asked: Check the results log: what was the call for CC(C)=CCC[C@]1(C)[C@H]2CC(=O)[C@@]3(CO3)[C@@H]1C2 ?
Given back: inactive

Asked: Check the results log: what was the call for O=C1CC(c2ccc(O)cc2)Oc2cc(O)ccc21 (stereo unspecified) ?
Given back: active

Asked: Check the results log: what was the call for CCC(=O)CCCCC[C@@H]1NC(=O)[C@H]2CCCCN2C(=O)[C@H](C(C)C)NC(=O)[C@H](Cc2cn(OC)c3ccccc23)NC1=O ?
Given back: inactive

Asked: Check the results log: what was the call for C[C@]12CC[C@]3(C1)[C@H](CC2=O)C[C@@H](OC(=O)c1ccccc1)[C@H]1[C@](C)(C(=O)O)CCC[C@@]13C ?
Given back: inactive

Asked: Check the results log: what was the call for C[C@@]12CCC[C@@](C)(C(=O)OP(=O)(O)OC[C@H]3O[C@@H](n4cnc5c(N)ncnc54)[C@H](O)[C@@H]3O)[C@H]1C[C@@H](O)[C@@]13C[C@@H](CC[C@@H]21)[C@](C)(O)C3 ?
Given back: inactive

Asked: Check the results log: what was the call for COC(=O)C1=C[C@]23C[C@@H](C)CC[C@@H]2[C@@]2(C)CC[C@@H](C(C)C)[C@@](O)(O3)[C@@H]12 ?
Given back: active

Asked: Check the results log: what was the call for C/C=C1/CN2C3CC1C1C=CC(=O)N4c5ccccc5[C@@]3(C[C@@H]2C2=C[C@H]3C5CC6N(CC[C@@]67c6ccccc6N(C2=O)[C@@H]37)C/C5=C/C)[C@H]14 (stereo partly specified) ?
Given back: active

Asked: Check the results log: what was the call for C[C@@]12C[C@@H](C[C@@H]3C(=O)O[C@@H](c4ccoc4)[C@H](OC(=O)c4ccccc4)[C@@H]31)OC2=O ?
Given back: inactive

Asked: Check the results log: what was the call for CC1(C)CC[C@]2(CO)CC[C@]3(C)C(=CCC4[C@@]5(C)CC[C@H](O)C(C)(C)C5CC[C@]43C)C2C1 (stereo partly specified) ?
Given back: inactive

Asked: Check the results log: what was the call for C/C1=C/[C@@H](C)[C@H](O)C/C=C/CC/C=C/C(=O)O[C@@H]1[C@H](C)C(=O)CCCC1CC(=O)NC(=O)C1 ?
Given back: inactive

Asked: Check the results log: what was the call for C[C@H]1C=C[C@H]2CCCC[C@@H]2[C@H]1C(=O)[C@H]1CC2=C(C(=O)O)CCN2C1=O ?
Given back: active
